test: AUC(0 to t) in Sprague-Dawley rat at 1 mg/kg, iv measured upto 24 hrs by LC-MS/MS analysis; assay type: ADME, organism-based; set-up: time < 24 hrs, dose 1 mg/kg, route iv; conditions: in vivo
Result Type: AUCt (ng·h/mL)

[[record]]
compound = "C[C@H]1CC2(CCN(c3ccc(C(=O)N4CCN(C5CN(c6ccc7c(c6)C(=O)N(C6CCC(=O)NC6=O)C7=O)C5)CC4)cc3)CC2)CN1c1ccc(C#N)c(Cl)c1 (stereo partly specified)"
observed = 1560


---

target: Cytochrome P450 3A4 (Homo sapiens, UniProt P08684); assay: Inhibition of CYP3A4 in human liver microsomes using […] as substrate preincubated for 5 mins followed by NADPH addition and measured after 5 mins by LC/MS analysis; type: ADME, Microsome
Sequence (P08684 whole entry): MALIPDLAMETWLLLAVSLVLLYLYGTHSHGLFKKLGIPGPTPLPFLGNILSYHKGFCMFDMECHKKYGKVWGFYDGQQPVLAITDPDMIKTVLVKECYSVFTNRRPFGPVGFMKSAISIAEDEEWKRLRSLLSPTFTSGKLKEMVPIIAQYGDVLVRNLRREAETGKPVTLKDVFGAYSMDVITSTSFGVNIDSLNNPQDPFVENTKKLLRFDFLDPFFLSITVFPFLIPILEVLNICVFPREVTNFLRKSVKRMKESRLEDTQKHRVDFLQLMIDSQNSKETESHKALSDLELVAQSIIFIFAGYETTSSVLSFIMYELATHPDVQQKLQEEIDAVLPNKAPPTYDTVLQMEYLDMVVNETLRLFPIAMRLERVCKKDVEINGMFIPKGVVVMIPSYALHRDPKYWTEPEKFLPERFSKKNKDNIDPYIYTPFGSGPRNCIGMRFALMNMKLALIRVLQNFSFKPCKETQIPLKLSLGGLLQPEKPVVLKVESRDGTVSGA
Result Type: IC50

[[record]]
molecule = "C[C@H]1CC2(CCN(c3ccc(C(=O)N4CCN(C5CN(c6ccc7c(c6)C(=O)N(C6CCC(=O)NC6=O)C7=O)C5)CC4)cc3)CC2)CN1c1ccc(C#N)c(Cl)c1 (stereo partly specified)"
observed = "> 10 µM"


---

Activity values by entry
biological target: Androgen receptor (Homo sapiens); assay: Induction of androgen receptor degradation in human VCaP cells at 1 uM after 24 hrs by Western blotting analysis relative to control; format: cell-based
Result Type: Activity (%)

[[record]]
molecule = "N#Cc1ccc(N2CCC3(CCN(c4ccc(C(=O)N5CC6(C5)CN(C5CN(c7ccc8c(c7)C(=O)N(C7CCC(=O)NC7=O)C8=O)C5)C6)cc4)CC3)C2)cc1Cl (stereo not drawn)"
result_type = "Activity"
observed = 81

[[record]]
molecule = "N#Cc1ccc(N2CCC3(CCN(c4ccc(C(=O)N5CCCN(C6CN(c7ccc8c(c7)C(=O)N(C7CCC(=O)NC7=O)C8=O)C6)CC5)cc4)CC3)C2)cc1Cl (stereo not drawn)"
result_type = "Activity"
observed = 87

[[record]]
molecule = "C[C@H]1CC2(CCN(c3ccc(C(=O)N4C[C@H]5C[C@@H]4CN5C4CN(c5ccc6c(c5)C(=O)N(C5CCC(=O)NC5=O)C6=O)C4)cc3)CC2)CN1c1ccc(C#N)c(Cl)c1 (stereo partly drawn)"
result_type = "Activity"
observed = 95


---

Molecular target: UniProtKB P10275
Sequence (P10275 whole entry): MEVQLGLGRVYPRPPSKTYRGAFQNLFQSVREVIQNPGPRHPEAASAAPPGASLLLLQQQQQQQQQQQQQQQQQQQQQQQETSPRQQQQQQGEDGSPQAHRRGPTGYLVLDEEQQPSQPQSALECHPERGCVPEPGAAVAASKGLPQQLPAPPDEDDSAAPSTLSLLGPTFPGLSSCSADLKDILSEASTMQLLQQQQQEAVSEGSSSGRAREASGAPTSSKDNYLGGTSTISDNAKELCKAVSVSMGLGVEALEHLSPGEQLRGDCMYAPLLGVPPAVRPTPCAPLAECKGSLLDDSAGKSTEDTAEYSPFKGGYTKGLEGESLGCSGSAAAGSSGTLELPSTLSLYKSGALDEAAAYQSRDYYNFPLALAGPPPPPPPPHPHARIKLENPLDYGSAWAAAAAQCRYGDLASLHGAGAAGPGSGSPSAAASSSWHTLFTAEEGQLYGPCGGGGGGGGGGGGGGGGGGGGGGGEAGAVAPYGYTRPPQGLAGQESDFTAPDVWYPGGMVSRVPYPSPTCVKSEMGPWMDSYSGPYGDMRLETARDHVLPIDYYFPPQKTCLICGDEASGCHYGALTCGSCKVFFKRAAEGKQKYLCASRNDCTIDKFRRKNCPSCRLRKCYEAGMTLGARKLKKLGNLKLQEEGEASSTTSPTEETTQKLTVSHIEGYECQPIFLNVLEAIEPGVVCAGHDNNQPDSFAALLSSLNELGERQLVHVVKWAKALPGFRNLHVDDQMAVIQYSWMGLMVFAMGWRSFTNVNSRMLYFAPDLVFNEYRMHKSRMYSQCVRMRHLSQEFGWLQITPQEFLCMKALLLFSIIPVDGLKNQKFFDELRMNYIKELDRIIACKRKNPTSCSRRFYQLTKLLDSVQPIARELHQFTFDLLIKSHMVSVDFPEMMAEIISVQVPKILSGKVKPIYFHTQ
Assay: Induction of androgen receptor degradation in human VCaP cells incubated for 24 hrs by Western blot analysis
Result Type: EC50 (nM)

[[record]]
compound = "C[C@H]1CC2(CCN(c3ccc(C(=O)N4CCN(C5CN(c6ccc7c(c6)C(=O)N(C6CCC(=O)NC6=O)C7=O)C5)CC4)cc3)CC2)CN1c1ccc(C#N)c(Cl)c1 (stereo partly specified)"
readout_units = "nM"
observed = 0.6


---

tested on: VCaP; assay: Growth inhibition in human VCaP cells incubated for 4 days by WST-8 assay; type: functional, cell-based; settings: 96 h
Result Type: IC50 (µM)

[[record]]
compound = "C[C@H]1CC2(CCN(c3ccc(C(=O)N4CCN(C5CN(c6ccc7c(c6)C(=O)N(C6CCC(=O)NC6=O)C7=O)C5)CC4)cc3)CC2)CN1c1ccc(C#N)c(Cl)c1 (stereo partly specified)"
result_type = "IC50"
observed = 0.01


---

assay: Clearance in Sprague-Dawley rat at 1 mg/kg, iv measured upto 24 hrs by LC-MS/MS analysis; type: ADME, organism-based; conditions: in vivo
Result Type: clearance (mL/min/kg)

[[record]]
molecule = "C[C@H]1CC2(CCN(c3ccc(C(=O)N4CCN(C5CN(c6ccc7c(c6)C(=O)N(C6CCC(=O)NC6=O)C7=O)C5)CC4)cc3)CC2)CN1c1ccc(C#N)c(Cl)c1 (stereo partly specified)"
readout_units = "mL/min/kg"
observed = 10.2


---

test: Clearance in Beagle dog at 1 mg/kg, iv measured upto 24 hrs by LC-MS/MS analysis; assay type: ADME, organism-based, Canis lupus familiaris; conditions: in vivo
Result Type: clearance

[[record]]
compound = "C[C@H]1CC2(CCN(c3ccc(C(=O)N4CCN(C5CN(c6ccc7c(c6)C(=O)N(C6CCC(=O)NC6=O)C7=O)C5)CC4)cc3)CC2)CN1c1ccc(C#N)c(Cl)c1 (stereo partly specified)"
result_type = "clearance"
observed = "4.6 mL/min/kg"


---

target: Androgen receptor (Homo sapiens); test: Induction of androgen receptor degradation in human VCaP cells at 0.1 uM after 24 hrs by Western blotting analysis relative to control; format: cell-based
Quick reference: Activity of the listed items.
Result Type: Activity

[[record]]
compound = "C[C@H]1CC2(CCN(c3ccc(C(=O)N4CCN(C5CCN(c6ccc7c(c6)C(=O)N(C6CCC(=O)NC6=O)C7=O)CC5)CC4)cc3)CC2)CN1c1ccc(C#N)c(Cl)c1 (stereo partly drawn)"
observed = "> 95%"

[[record]]
compound = "C[C@@H]1N(c2ccc(C#N)c(Cl)c2)CCC12CCN(c1ccc(C(=O)N3CCN(C4CN(c5ccc6c(c5)C(=O)N(C5CCC(=O)NC5=O)C6=O)C4)CC3)cc1)CC2 (stereo partly drawn)"
observed = "> 95%"

[[record]]
compound = "C[C@H]1CC2(CCN(c3ccc(C(=O)N4CCN(CC5CCN(c6ccc7c(c6)C(=O)N(C6CCC(=O)NC6=O)C7=O)CC5)CC4)cc3)CC2)CN1c1ccc(C#N)c(Cl)c1 (stereo partly drawn)"
observed = "> 95%"


---

experiment: Drug concentration in ICR mouse plasma at 10 mg/kg, po measured after 6 hrs; assay type: ADME, organism-based
Result Type: concentration at 6 h (ng/mL)

[[record]]
molecule = "C[C@H]1CC2(CCN(c3ccc(C(=O)N4CCN(C5CN(c6ccc7c(c6)C(=O)N(C6CCC(=O)NC6=O)C7=O)C5)CC4)cc3)CC2)CN1c1ccc(C#N)c(C(F)(F)F)c1 (some centres undefined)"
readout_units = "ng/mL"
observed = 29

[[record]]
molecule = "C[C@H]1CC2(CCN(c3ccc(C(=O)N4CCN(C5CN(c6ccc7c(c6)C(=O)N(C6CCC(=O)NC6=O)C7=O)C5)CC4)cc3)CC2)CN1c1cnc(C#N)c(C(F)(F)F)c1 (some centres undefined)"
readout_units = "ng/mL"
observed = 451

[[record]]
molecule = "C[C@H]1CC2(CCN(c3ccc(C(=O)N4CCN(C5CN(c6ccc7c(c6)C(=O)N(C6CCC(=O)NC6=O)C7=O)C5)CC4)cc3)CC2)CN1c1ccc(C#N)c(F)c1 (some centres undefined)"
readout_units = "ng/mL"
observed = 91

[[record]]
molecule = "C[C@H]1CC2(CCN(c3ccc(C(=O)N4CCN(C5CN(c6ccc7c(c6)C(=O)N(C6CCC(=O)NC6=O)C7=O)C5)CC4)cc3)CC2)CN1c1ccc(C#N)c(Cl)c1 (some centres undefined)"
readout_units = "ng/mL"
observed = 369


---

# Activity listing for each entry below
Target: Androgen receptor (Homo sapiens) (UniProt P10275)
Sequence (whole entry): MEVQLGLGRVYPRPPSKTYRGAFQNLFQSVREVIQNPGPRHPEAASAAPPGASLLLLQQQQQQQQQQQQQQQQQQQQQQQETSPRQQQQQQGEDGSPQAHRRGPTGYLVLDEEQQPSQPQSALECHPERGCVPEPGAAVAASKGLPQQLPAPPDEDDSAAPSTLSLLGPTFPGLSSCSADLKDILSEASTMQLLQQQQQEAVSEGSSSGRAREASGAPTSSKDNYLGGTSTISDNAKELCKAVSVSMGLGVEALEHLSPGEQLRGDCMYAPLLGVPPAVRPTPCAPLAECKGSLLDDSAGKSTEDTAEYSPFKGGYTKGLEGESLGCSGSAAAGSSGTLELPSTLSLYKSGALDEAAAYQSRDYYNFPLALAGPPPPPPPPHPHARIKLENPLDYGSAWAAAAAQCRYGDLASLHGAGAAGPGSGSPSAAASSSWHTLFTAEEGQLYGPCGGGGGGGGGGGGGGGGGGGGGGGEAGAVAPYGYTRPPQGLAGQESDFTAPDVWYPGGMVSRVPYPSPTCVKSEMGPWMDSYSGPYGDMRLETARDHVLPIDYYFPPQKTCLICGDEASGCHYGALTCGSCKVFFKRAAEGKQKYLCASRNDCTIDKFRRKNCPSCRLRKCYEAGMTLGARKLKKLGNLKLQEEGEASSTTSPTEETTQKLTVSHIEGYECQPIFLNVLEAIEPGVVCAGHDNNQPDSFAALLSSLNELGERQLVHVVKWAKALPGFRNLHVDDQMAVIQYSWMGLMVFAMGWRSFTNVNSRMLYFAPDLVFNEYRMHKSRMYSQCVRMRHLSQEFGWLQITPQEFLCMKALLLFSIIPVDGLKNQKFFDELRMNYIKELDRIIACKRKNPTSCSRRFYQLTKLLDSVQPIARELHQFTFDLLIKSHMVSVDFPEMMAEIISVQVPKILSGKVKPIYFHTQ
Experiment: Induction of androgen receptor degradation in human VCaP cells at 1 uM after 24 hrs by Western blotting analysis relative to control
Type: cell-based
Result Type: Activity

[[record]]
compound = "N#Cc1ccc(N2CCC3(CCN(c4ccc(C(=O)N5CCC(N6CCN(c7ccc8c(c7)C(=O)N(C7CCC(=O)NC7=O)C8=O)CC6)CC5)cc4)CC3)C2)cc1Cl (centres undefined)"
observed = "> 95%"

[[record]]
compound = "C[C@H]1CC2(CCN(c3ccc(C(=O)N4CCN(C5CN(c6ccc7c(c6)C(=O)N(C6CCC(=O)NC6=O)C7=O)C5)CC4)cc3)CC2)CN1c1ccc(C#N)c(F)c1 (some centres undefined)"
observed = "> 95%"

[[record]]
compound = "C[C@H]1CC2(CCN(c3ccc(C(=O)N4CCN(C5(C#N)CN(c6ccc7c(c6)C(=O)N(C6CCC(=O)NC6=O)C7=O)C5)CC4)cc3)CC2)CN1c1ccc(C#N)c(Cl)c1 (some centres undefined)"
observed = "88%"

[[record]]
compound = "C[C@H]1CC2(CCN(c3ccc(C(=O)N4CCC(CN5CCN(c6ccc7c(c6)C(=O)N(C6CCC(=O)NC6=O)C7=O)CC5)CC4)cc3)CC2)CN1c1ccc(C#N)c(Cl)c1 (some centres undefined)"
observed = "> 95%"

